Kindly supply the reported Human GLP-1R potency [EC50 (pM)] values for the records listed here.
- TARGET_UNDER_TEST: human GLP-1 receptor (human, UniProt P43220 24-463)
- EXPERIMENT: cell-based or functional assay
Starred links: 1 amine or outer side, 2 acyl side, 3 side chain; linkers in the order of their positions; H or OH if unused. Non-standard residues stand in square brackets, D forms with d. Groups on a side chain read outwards from the residue. *: point of attachment. C20 diacid = O=C(O)CCCCCCCCCCCCCCCCCCC(=O)*; C18 diacid = O=C(O)CCCCCCCCCCCCCCCCC(=O)*; γGlu = O=C(O)[C@H](CCC(=O)[*:2])N[*:1]; Trx = NC[C@H]1CC[C@H](C(=O)O)CC1; AEEA = NCCOCCOCC(=O)O; Aib = CC(C)(N)C(=O)O
One number for each entry, in pM.

BINDER: Compound 0504 (peptide) peptide: H[Aib]EGTFTSDVSSYLEEQAAREFIAWLVRGRPK([AEEA-AEEA-γGlu-Trx-C20 diacid])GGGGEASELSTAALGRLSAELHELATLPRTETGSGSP-NH2
UNIT: pM
QUANTITATIVE_READOUT: 8.3

// next entry
Reported Human GLP-1R potency [EC50 (pM)], binder Compound 0116 (peptide) peptide: H[Aib]EGTFTSDVSSYLEEQAARK([AEEA-AEEA-γGlu-C18 diacid])FIAWLVRGRK([AEEA-AEEA-γGlu-C18 diacid])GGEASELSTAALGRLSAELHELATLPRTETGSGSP-NH2 : ____
1.5
